- Test system: biotinyl-Ile-oxazolone
- assay_summary: self-aminoacylation, catalytic enhancement (BIO) (fold over background); higher = more active; k-Seq, kA / k0A0; sequences stand for … in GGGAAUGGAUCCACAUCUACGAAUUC…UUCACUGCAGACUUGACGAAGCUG
Variants at the floor of the assay were thinned out.
measurement_name: self-aminoacylation

AUUAACCUAGUCAUCGAGUGA [Fam2.1 aminoacylation ribozyme variant]: 2.94
CUACUUCAAUCAUUCGGUCUG [Fam1A.1 aminoacylation ribozyme variant]: 1.1
CUUACACUGGUCAUCGAGUGA [Fam2.1 aminoacylation ribozyme variant]: 2.65
GUCCACCUAGGUCAUCGGGUG [Fam2.2 aminoacylation ribozyme variant]: 4.43
AAGGUUGCAAAUAGUCGCAAG [Fam3.1 aminoacylation ribozyme variant]: 1.41
AUUCACCUAUGUCGUCGGGUG [Fam2.2 aminoacylation ribozyme variant]: 1.19
AUUACCGUGGUCAUCCAGUGA [Fam2.1 aminoacylation ribozyme variant]: 3.52
AAGUUUGCUAAUAGGCGCGAG [Fam3.1 aminoacylation ribozyme variant]: 1.16
CUAUUUCAAACAAUCGGUCUC [Fam1A.1 aminoacylation ribozyme variant]: 0.818

###

- System: biotinyl-Leu-oxazolone
- assay_summary: self-aminoacylation, catalytic enhancement (BLO) (fold over background); higher = more active; k-Seq, kA / k0A0; sequences stand for … in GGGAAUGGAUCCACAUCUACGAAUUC…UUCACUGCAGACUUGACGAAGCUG
Variants at the floor of the assay were thinned out.
measurement_name: self-aminoacylation

GCACACUUCAAGUAAUCGGUC [Fam1B.1 aminoacylation ribozyme variant]: 1.77
AAUUCCCUGGUCAUCGAGUGA [Fam2.1 aminoacylation ribozyme variant]: 10.8
CCACACUUCAAGCAAUCCAUC [Fam1B.1 aminoacylation ribozyme variant]: 0.446
AAGUUUACUACUAGUCGCAAG [Fam3.1 aminoacylation ribozyme variant]: 1.27

###

- Test system: biotinyl-Val-oxazolone
- assay_summary: self-aminoacylation, catalytic enhancement (BVO) (fold over background); higher = more active; k-Seq, kA / k0A0; sequences stand for … in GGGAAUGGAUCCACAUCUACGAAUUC…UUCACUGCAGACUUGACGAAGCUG
Fewer inactive variants are shown than the library holds.
Rule: 1 (yes) for self-aminoacylation not less than 1, 0 (no) for anything less.

AAGUUUGCUAAAAAUCGCAAG [Fam3.1 aminoacylation ribozyme variant]: 0 (no)
CCAAACUUCUAGCAAUCGGUC [Fam1B.1 aminoacylation ribozyme variant]: 0 (no)
AUUACCCUGGUCAUCGCGUGA [Fam2.1 aminoacylation ribozyme variant]: 1 (yes)
AUUGCCCUUGUCAUCGAGUGA [Fam2.1 aminoacylation ribozyme variant]: 1 (yes)
CUACUACAAACAAACGGUCUG [Fam1A.1 aminoacylation ribozyme variant]: 0 (no)
CAACUUCAAACAAUAGGUCUG [Fam1A.1 aminoacylation ribozyme variant]: 0 (no)
AUUCAGCUAGGUCCUCGGGUG [Fam2.2 aminoacylation ribozyme variant]: 1 (yes)

###

Catalogue of self-aminoacylation values
- System: biotinyl-Met-oxazolone
- assay_summary: self-aminoacylation, catalytic enhancement (BMO) (fold over background); higher = more active; k-Seq, kA / k0A0; sequences stand for … in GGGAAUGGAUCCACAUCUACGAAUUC…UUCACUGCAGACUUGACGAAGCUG
Fewer inactive variants are shown than the library holds.
measurement_name: self-aminoacylation

AUUCCCCUAGUUCAUCGGGUG [Fam2.2 aminoacylation ribozyme variant]: 7.78
AAUCACCUAGGUCCUCGGGUG [Fam2.2 aminoacylation ribozyme variant]: 3.73
AUUCACCUAGGACGUCGGGUG [Fam2.2 aminoacylation ribozyme variant]: 1.91
AUUACCCUAGUCAUUGAGUGA [Fam2.1 aminoacylation ribozyme variant]: 6.69
AUUCAUCUAGGUUAUCGGGUG [Fam2.2 aminoacylation ribozyme variant]: 3.02
AUAACCCUGGUCAUCUAGUGA [Fam2.1 aminoacylation ribozyme variant]: 8.88
CUACACUUUAAGCAAUCGGUC [Fam1B.1 aminoacylation ribozyme variant]: 0.63
AUUACCCUGGUGAUUGAGUGA [Fam2.1 aminoacylation ribozyme variant]: 7.66
CCACACUUCAAUCAAGCGGUC [Fam1B.1 aminoacylation ribozyme variant]: 0.634
AAUCACCUAGGUCAUCGAGUG [Fam2.2 aminoacylation ribozyme variant]: 3.92
UCACAGUUCAAGCAAUCGGUC [Fam1B.1 aminoacylation ribozyme variant]: 1.01
CUACUUCAAACAAACGGUCGG [Fam1A.1 aminoacylation ribozyme variant]: 0.726
AAGUGUGCUAAUAUUCGCAAG [Fam3.1 aminoacylation ribozyme variant]: 1.58
CCACACUUCAAGCACUCGGCC [Fam1B.1 aminoacylation ribozyme variant]: 2.89
CAACACUUCAAGCAAUCUGUC [Fam1B.1 aminoacylation ribozyme variant]: 0.396
AAUCACCUAGGUCAUCGGGCG [Fam2.2 aminoacylation ribozyme variant]: 4.05
CCACUCUUCAAGCAAUCGGUG [Fam1B.1 aminoacylation ribozyme variant]: 4.76
UGACUUCAAACAAUCGGUCUG [Fam1A.1 aminoacylation ribozyme variant]: 2.05
AUUCACCUACGUCAUCGGGUG [Fam2.2 aminoacylation ribozyme variant]: 5.27
CUACUUCAAACAAGGGGUCUG [Fam1A.1 aminoacylation ribozyme variant]: 0.746
AAGUUUGCUAAUAGCCGCAUG [Fam3.1 aminoacylation ribozyme variant]: 1.12
CUACUUUAAGCAAUCGGUCUG [Fam1A.1 aminoacylation ribozyme variant]: 0.749
AAGUUUGCUAAUAGUAGCUAG [Fam3.1 aminoacylation ribozyme variant]: 1.28
AUUCACCGAGGUGAUCGGGUG [Fam2.2 aminoacylation ribozyme variant]: 4.75
AUUCAUAUAGGUCAUCGGGUG [Fam2.2 aminoacylation ribozyme variant]: 4.9
CUACUUCAACCAAUCGGUCUU [Fam1A.1 aminoacylation ribozyme variant]: 0.975
AUUACCCUGGUCAUCCCGUGA [Fam2.1 aminoacylation ribozyme variant]: 7.44
CUACGCUUCAAGCAAUCGGUC [Fam1B.1 aminoacylation ribozyme variant]: 1.14
AAGUUUGCUCAUAGUGGCAAG [Fam3.1 aminoacylation ribozyme variant]: 0.618
AUUUACCAAGGUCAUCGGGUG [Fam2.2 aminoacylation ribozyme variant]: 7.36
CCGCACUUCAAGCAAUCAGUC [Fam1B.1 aminoacylation ribozyme variant]: 0.798
AUUACCCUGGUCAGCGAGUAA [Fam2.1 aminoacylation ribozyme variant]: 1.48
CUACUUCAAACAAUGGGUCAG [Fam1A.1 aminoacylation ribozyme variant]: 0.648
AAGGUUGCUAAUAGUGGCAAG [Fam3.1 aminoacylation ribozyme variant]: 0.863
AUUCACCUAGGUCAUUGGGCG [Fam2.2 aminoacylation ribozyme variant]: 2.49
